# System: oral epidermoid (KB) carcinoma cell line
# assay method text: Cytotoxicity assay (sulforhodamine B), KB
# Format: cell-based, human
# experimental conditions: KB cells
measurement name: Cytotoxic activity IC90, KB (nM)
Value expressed in nM; do not type the unit.

| compound | Cytotoxic activity IC90, KB / nM |
| --- | --- |
| CC[C@]1(O)C[C@@H]2CN(CCc3c([nH]c4ccccc34)[C@@](C(=O)OC)(c3cc4c(cc3OC)N(C)[C@H]3[C@@](O)(C(=O)OC)[C@H](OC(C)=O)[C@]5(CC)C=CCN6CC[C@]43[C@@H]65)C2)C1 [Vinblastine, reference compound] | 10.1 |

Turning now to a further record.
Input: Give measured Cytotoxic activity IC90, KB for CC(C)CC1NC(=O)C(C)N(C)C(=O)C(C)N(C)C(=O)C(C2C(C)C2C)NC(=O)C(CC(C)CO)N(C)C(=O)C(C)N(C)C(=O)C(C2C(C)C2C)NC1=O (stereo not drawn) (oral epidermoid (KB) carcinoma cell line).
Output: 11.4

----------
Listing of recorded pIC50 by entry.
# Tested on: breast (MCF7) carcinoma cell line
# assay method text: cells
# Format: cell-based, human
# experimental conditions: 72 hours, read-out: Cytotoxic activity IC50, MCF7
*1 amine or outer side, *2 acyl side, *3 side chain or, on linkers, in order; H or OH if unused. Where a SMILES comes first, the peptide text is derived from it. [ ]: non-standard residue; d: D form. X3 = CC1C(C)C1C(N[*:1])C(=O)[*:2]; NMeL = CN[CH](CC(C)C)C(=O)O; NMeA = CN[CH](C)C(=O)O
In simple prose, pIC50 is minus the logarithm base ten of a concentration in moles per litre.

Guide cases for pIC50, answers given:
| compound | pIC50 |
| --- | --- |
| CC(C)CC1NC(=O)C(C)N(C)C(=O)C(C)N(C)C(=O)C(C2C(C)C2C)NC(=O)C(CC(C)C)N(C)C(=O)C(C)N(C)C(=O)C(CC(C)C)NC1=O (stereo not drawn) [Compound 3] (cyclo([X3][NMeA][NMeA]LL[NMeA][NMeL]); configuration not given here) | 7.58 |
| CC(C)CC1NC(=O)C(C)N(C)C(=O)C(C)N(C)C(=O)C(C2C(C)C2C)NC(=O)C(CC(C)CO)N(C)C(=O)C(C)N(C)C(=O)C(C2C(C)C2C)NC1=O (stereo not drawn) | 8.23 |

Turning now to a further record.
Input: Answer with the recorded pIC50 for the compound listed here: CC(C)CC1NC(=O)C(C)N(C)C(=O)C(C)N(C)C(=O)C(C2C(C)C2C)NC(=O)C(CC(C)C)N(C)C(=O)C(C)N(C)C(=O)C(C2C(C)C2C)NC1=O (stereo not drawn) [Compound 1] (cyclo([X3][NMeA][NMeA]L[X3][NMeA][NMeL]); configuration not given here)
Output: 9.59

----------
# Tested on: lung (A549) carcinoma cell line
# assay method text: cells
# Format: cell-based, human
# experimental conditions: 72 hours, read-out: Cytotoxic activity IC50, A549
*1 amine or outer side, *2 acyl side, *3 side chain or, on linkers, in order; H or OH if unused. Where a SMILES comes first, the peptide text is derived from it. [ ]: non-standard residue; d: D form. X3 = CC1C(C)C1C(N[*:1])C(=O)[*:2]; NMeL = CN[CH](CC(C)C)C(=O)O; NMeA = CN[CH](C)C(=O)O
measurement name: pIC50
In simple prose, pIC50 is minus the logarithm base ten of a concentration in moles per litre.

| compound | measurement name | experimental result |
| --- | --- | --- |
| CC(C)CC1NC(=O)C(C)N(C)C(=O)C(C)N(C)C(=O)C(C2C(C)C2C)NC(=O)C(CC(C)CO)N(C)C(=O)C(C)N(C)C(=O)C(C2C(C)C2C)NC1=O (stereo not drawn) [Compound 2] | pIC50 | 8.20 |

Input: Answer with the recorded pIC50 for the compound listed here: CC(C)CC1NC(=O)C(C)N(C)C(=O)C(C)N(C)C(=O)C(C2C(C)C2C)NC(=O)C(CC(C)C)N(C)C(=O)C(C)N(C)C(=O)C(C2C(C)C2C)NC1=O (stereo not drawn) [Compound 1] (cyclo([X3][NMeA][NMeA]L[X3][NMeA][NMeL]); configuration not given here)
Output: 9.62

Input: Answer with the recorded pIC50 for the compound listed here: CC(C)CC1NC(=O)C(C)N(C)C(=O)C(C)N(C)C(=O)C(C2C(C)C2C)NC(=O)C(CC(C)C)N(C)C(=O)C(C)N(C)C(=O)C(CC(C)C)NC1=O (stereo not drawn) [Compound 3] (cyclo([X3][NMeA][NMeA]LL[NMeA][NMeL]); configuration not given here)
Output: 7.29

----------
# Tested on: prostate (LNCaP) carcinoma cell line
# assay method text: cells
# Format: cell-based, human
# experimental conditions: 72 hours, read-out: Cytotoxic activity IC50, LNCaP
*1 amine or outer side, *2 acyl side, *3 side chain or, on linkers, in order; H or OH if unused. Where a SMILES comes first, the peptide text is derived from it. [ ]: non-standard residue; d: D form. X3 = CC1C(C)C1C(N[*:1])C(=O)[*:2]; NMeL = CN[CH](CC(C)C)C(=O)O; NMeA = CN[CH](C)C(=O)O
measurement name: pIC50
In simple prose, pIC50 is minus the logarithm base ten of a concentration in moles per litre.

Input: Answer with the recorded pIC50 for the compound listed here: CC(C)CC1NC(=O)C(C)N(C)C(=O)C(C)N(C)C(=O)C(C2C(C)C2C)NC(=O)C(CC(C)C)N(C)C(=O)C(C)N(C)C(=O)C(C2C(C)C2C)NC1=O (stereo not shown) [Compound 1] (cyclo([X3][NMeA][NMeA]L[X3][NMeA][NMeL]); configuration not given here)
Output: 9.38

----------
# Tested on: 3T3-L1 murine adipocytes
# assay method text: 3T3-L1 adipocyte cell viability
# Assay type: cell-based
# experimental conditions: differentiated 3T3-L1 adipocytes
# Description: MV-A, MV-B, MV-C and MV-D are evaluated for their anti-obesity effects in 3T3-L1 murine adipocytes. 3T3-L1 cells are cultured in the presence of insulin to induce adipocyte differentiation. Pure compounds are evaluated against 3T3-L1 cell line for their potential anti-obesity activity. […] Fat accumulation is determined by measuring the liberated triglyceride using a Wato Triglyceride E-test Kit with the absorbance at 630/690 nm. […] The cell viability is calculated as a percentage of the control.
*1 amine or outer side, *2 acyl side, *3 side chain or, on linkers, in order; H or OH if unused. Where a SMILES comes first, the peptide text is derived from it. [ ]: non-standard residue; d: D form. X2 = C[C@@H]1C([C@@H](N[*:1])C(=O)[*:2])[C@H]1C; X1 = C[C@@H]1C([C@H](N[*:1])C(=O)[*:2])[C@H]1C; dGly(cPr) = N[C@@H](C(=O)O)C1CC1; Gly(cPr) = N[C@H](C(=O)O)C1CC1; NMeL = CN[C@@H](CC(C)C)C(=O)O; NMeA = CN[C@@H](C)C(=O)O; dNMeA = CN[C@H](C)C(=O)O
Listing of recorded IC50 by entry.

Guide cases for IC50, answers given:
| molecule | IC50 |
| --- | --- |
| CC(C)C[C@H]1NC(=O)[C@@H](C)N(C)C(=O)[C@H](C)N(C)C(=O)[C@H](C2[C@@H](C)[C@@H]2C)NC(=O)[C@H](CC(C)C)N(C)C(=O)[C@H](C)N(C)C(=O)[C@@H](C2[C@@H](C)[C@@H]2C)NC1=O (stereo partly drawn) [MV-A] (cyclo([NMeA][NMeL][X1][NMeA][dNMeA][dL][X2])) | 12.9 nM |
| CC(C)C[C@H]1NC(=O)[C@@H](C)N(C)C(=O)[C@H](C)N(C)C(=O)[C@H](C2[C@@H](C)[C@@H]2C)NC(=O)[C@H](CC(C)CO)N(C)C(=O)[C@H](C)N(C)C(=O)[C@@H](C2[C@@H](C)[C@@H]2C)NC1=O (stereo partly shown) | 83.7 nM |
| CC(C)C[C@H]1NC(=O)[C@@H](C)N(C)C(=O)[C@H](C)N(C)C(=O)[C@H](C2[C@@H](C)[C@@H]2C)NC(=O)[C@H](CC(C)C)N(C)C(=O)[C@H](C)N(C)C(=O)[C@@H](CC(C)C)NC1=O (stereo partly drawn) [MV-C] (HELM PEPTIDE1{[meA].[meL].[C[C@@H]1C([C@H](N[*:1])C(=O)[*:2])[C@H]1C].[meA].[C[C@H](C(=O)[*:2])N(C)[*:1]].[dL].[dL]}$PEPTIDE1,PEPTIDE1,1:R1-7:R2$$$V2.0) | 689 nM |

Input: Answer with the recorded IC50 for the molecule listed here: CC(C)C[C@H]1NC(=O)[C@@H](C)N(C)C(=O)[C@H](C)N(C)C(=O)[C@H](C2CC2)NC(=O)[C@H](CC(C)C)N(C)C(=O)[C@H](C)N(C)C(=O)[C@@H](C2CC2)NC1=O [MV-D] (cyclo([Gly(cPr)][NMeA][dNMeA][dL][dGly(cPr)][NMeA][NMeL]))
Output: > 5000 nM
